Data provenance: PubChem BioAssay AID1851

# studySystem: Cytochrome P450 1A2 (Homo sapiens) (UniProt P05177)
# Sequence (P05177 whole entry, looked up): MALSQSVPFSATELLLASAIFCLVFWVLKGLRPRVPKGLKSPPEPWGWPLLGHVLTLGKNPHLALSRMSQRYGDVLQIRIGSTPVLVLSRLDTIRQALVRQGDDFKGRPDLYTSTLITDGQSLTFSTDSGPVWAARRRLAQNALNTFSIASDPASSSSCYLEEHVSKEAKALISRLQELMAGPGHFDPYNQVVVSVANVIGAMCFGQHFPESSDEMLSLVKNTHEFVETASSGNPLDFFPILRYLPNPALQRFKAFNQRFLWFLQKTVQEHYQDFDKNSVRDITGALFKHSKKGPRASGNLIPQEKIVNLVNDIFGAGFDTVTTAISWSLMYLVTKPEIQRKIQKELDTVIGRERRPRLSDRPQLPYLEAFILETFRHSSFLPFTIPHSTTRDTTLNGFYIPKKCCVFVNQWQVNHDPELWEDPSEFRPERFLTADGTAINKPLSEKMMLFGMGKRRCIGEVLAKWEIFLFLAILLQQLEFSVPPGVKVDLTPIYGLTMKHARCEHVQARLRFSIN
# procedureDetails: Cytochrome panel assay with activity outcomes
# assayContext: recombinant CYP, pro-luciferin dealkylation, luminescence, p450-cyp1a2; series mostly up to 57.1 µM
Hit rate of the full screen: of about 16,000 compounds, about 5,700 (36%) were called active. Inconclusive results (about 24%) are left out. The list shows a part of the results.
quantityKind: AC50

>  <molecule>
CCOC(=O)C1CCN(C(=O)c2ccccc2NC(C)=O)CC1

>  <dataValue>
inactive

$$$$
>  <molecule>
CCCC(=O)N1CCN(c2ccc(NC(=O)c3sc4ccccc4c3Cl)cc2)CC1

>  <dataValue>
inactive

$$$$
>  <molecule>
Cc1c(C)c2c(c(C)c1O)CC[C@@](C)(CCC[C@@H](C)CCC[C@@H](C)CCCC(C)C)O2

>  <dataValue>
inactive

$$$$
>  <molecule>
O=C(c1cnccn1)N1CCC2(CCN(Cc3nccs3)CC2)CC1

>  <dataValue>
inactive

$$$$
>  <molecule>
COc1ccc(/C=C(\C#N)C(N)=O)c(OC)c1

>  <dataValue>
1.58 µM (active)

$$$$
>  <molecule>
CCN(CC)c1ccc(/C=C/c2nc3ccccc3s2)cc1

>  <dataValue>
2.51 µM (active)

$$$$

Respectfully, I request AC50 for each entry included below.
1. COc1cccc(C2C3(C#N)C(N)=NC(OC)(OC)C23C#N)c1 (stereo not drawn)
2. COc1ncc2nc(-c3ccc(F)cc3)c(=O)n(C)c2n1
3. O=C(NCc1cccc(C(F)(F)F)c1)c1cc(Cl)cc(Cl)c1
4. Cc1ccc(NC(=O)C2CCN(S(=O)(=O)c3c(C)n[nH]c3C)CC2)nc1
5. O=C(NNC(=O)c1sc2ccccc2c1Cl)Nc1ccc(Cl)cc1
6. Cc1cc(C)c(NC(=O)CS(=O)CC(=O)NCCCc2ccccc2)c(C)c1 (stereo not drawn)
7. CC(C)c1nnc(NC(=O)c2sc3ccccc3c2Cl)s1

OUT:
["inactive", "0.501 µM (active)", "12.6 µM (active)", "inactive", "0.501 µM (active)", "inactive", "10 µM (active)"]
